Just for reference, paper PMC9727977 is where these values come from.

method_summary: Stability of the analytes in rat plasma QC samples under different storage conditions
Type: in vitro ADME
test_parameters: low QC level, nominal ng/mL: AST 100, FE 50, PRO 20, CH 100, PE 100, SAB 200, n = 6
endpoint_label: In 56 ℃ for 1 h measured value

{"columns": ["compound_smiles", "endpoint_label", "endpoint_value"],
 "data": [
  ["COc1cc(/C=C/C(=O)O)ccc1O", "In 56 ℃ for 1 h measured value", 48.33],
  ["C[C@@H]1O[C@@H](O[C@H]2C(=O)c3c(O)cc(O)cc3O[C@@H]2c2ccc(O)c(O)c2)[C@H](O)[C@H](O)[C@H]1O", "In 56 ℃ for 1 h measured value", 98.46],
  ["O=Cc1ccc(O)c(O)c1", "In 56 ℃ for 1 h measured value", 19.88],
  ["O=C(/C=C/c1ccc(O)c(O)c1)O[C@@H]1C[C@](O)(C(=O)O)C[C@@H](O)[C@H]1O", "In 56 ℃ for 1 h measured value", 97.22],
  ["C[C@@]12C[C@@]3(O)O[C@@H](O1)[C@]1(COC(=O)c4ccccc4)[C@H]3C[C@@]12O[C@@H]1O[C@H](CO)[C@@H](O)[C@H](O)[C@H]1O", "In 56 ℃ for 1 h measured value", 95.32]
]}

---

method_summary: Pharmacokinetics of six compounds in rat plasma after oral administration of PYQ (HPLC-MS/MS)
Type: in vivo, Sprague–Dawley rats
test_parameters: female, Sprague-Dawley, po, PYQ orally 8 mL/kg, mean ± SD, n = 6, read-out: Vz/F
Each entry below carries its recorded Vd/F.

{"columns": ["molecule", "Vd/F, L/kg"],
 "data": [
  ["COc1cc(/C=C/C(=O)O)ccc1O [FE, ferulic acid]", 17.9],
  ["O=Cc1ccc(O)c(O)c1 [PRO, protocatechualdehyde]", 24.9],
  ["C[C@@H]1O[C@@H](O[C@H]2C(=O)c3c(O)cc(O)cc3O[C@@H]2c2ccc(O)c(O)c2)[C@H](O)[C@H](O)[C@H]1O [AST, astilbin]", 45.4],
  ["C[C@@]12C[C@@]3(O)O[C@@H](O1)[C@]1(COC(=O)c4ccccc4)[C@H]3C[C@@]12O[C@@H]1O[C@H](CO)[C@@H](O)[C@H](O)[C@H]1O [PE, paeoniflorin]", 31.3],
  ["O=C(/C=C/c1ccc(O)c(O)c1)O[C@@H]1C[C@](O)(C(=O)O)C[C@@H](O)[C@H]1O [CH, chlorogenic acid]", 57.2]
]}

---

Reported Three freeze-thaw cycles measured value is given for each of the following compounds.
method_summary: Stability of the analytes in rat plasma QC samples under different storage conditions
Format: in vitro ADME
test_parameters: high QC level, nominal ng/mL: AST 500, FE 400, PRO 400, CH 500, PE 500, SAB 800, n = 6
Method: QC samples were […], 50, 125, 400 ng/mL for FE, 20, 100, 400 ng/mL for PRO, 100, 200, 500 ng/mL for CH, 100, 200, 500 ng/mL for PE, 200, 400, 800 ng/mL for SAB respectively. All the stock solutions, working solutions and QC samples were stored at 4 ℃ until use. […] The stability of all QC samples was determined by the freshly calibration curve.

{"columns": ["compound_smiles", "Three freeze-thaw cycles measured value"],
 "data": [
  ["C[C@@H]1O[C@@H](O[C@H]2C(=O)c3c(O)cc(O)cc3O[C@@H]2c2ccc(O)c(O)c2)[C@H](O)[C@H](O)[C@H]1O", 497.15],
  ["O=Cc1ccc(O)c(O)c1", 395.66],
  ["COc1cc(/C=C/C(=O)O)ccc1O", 400.59],
  ["C[C@@]12C[C@@]3(O)O[C@@H](O1)[C@]1(COC(=O)c4ccccc4)[C@H]3C[C@@]12O[C@@H]1O[C@H](CO)[C@@H](O)[C@H](O)[C@H]1O", 492.85],
  ["O=C(/C=C/c1ccc(O)c(O)c1)O[C@@H]1C[C@](O)(C(=O)O)C[C@@H](O)[C@H]1O", 485.90]
]}

---

method_summary: Stability of the analytes in rat plasma QC samples under different storage conditions
Type: in vitro ADME
test_parameters: high QC level, nominal ng/mL: AST 500, FE 400, PRO 400, CH 500, PE 500, SAB 800, n = 6

{"columns": ["molecule", "In 56 ℃ for 1 h measured value"],
 "data": [
  ["C[C@@H]1O[C@@H](O[C@H]2C(=O)c3c(O)cc(O)cc3O[C@@H]2c2ccc(O)c(O)c2)[C@H](O)[C@H](O)[C@H]1O [AST, astilbin]", 495.21],
  ["COc1cc(/C=C/C(=O)O)ccc1O [FE, ferulic acid]", 399.13],
  ["O=Cc1ccc(O)c(O)c1 [PRO, protocatechualdehyde]", 394.26],
  ["O=C(/C=C/c1ccc(O)c(O)c1)O[C@@H]1C[C@](O)(C(=O)O)C[C@@H](O)[C@H]1O [CH, chlorogenic acid]", 489.60],
  ["C[C@@]12C[C@@]3(O)O[C@@H](O1)[C@]1(COC(=O)c4ccccc4)[C@H]3C[C@@]12O[C@@H]1O[C@H](CO)[C@@H](O)[C@H](O)[C@H]1O [PE, paeoniflorin]", 495.87]
]}

---

method_summary: Stability of the analytes in rat plasma QC samples under different storage conditions
Assay type: in vitro ADME
test_parameters: middle QC level, nominal ng/mL: AST 200, FE 125, PRO 100, CH 200, PE 200, SAB 400, n = 6
Overview of reported In 56 ℃ for 1 h measured value across a group of molecules:
endpoint_label: In 56 ℃ for 1 h measured value

{"columns": ["molecule", "endpoint_value"],
 "data": [
  ["O=Cc1ccc(O)c(O)c1 [PRO, protocatechualdehyde]", "98.21 ± 2.33"],
  ["C[C@@]12C[C@@]3(O)O[C@@H](O1)[C@]1(COC(=O)c4ccccc4)[C@H]3C[C@@]12O[C@@H]1O[C@H](CO)[C@@H](O)[C@H](O)[C@H]1O [PE, paeoniflorin]", "196.25 ± 4.08"],
  ["COc1cc(/C=C/C(=O)O)ccc1O [FE, ferulic acid]", "123.42 ± 1.76"],
  ["C[C@@H]1O[C@@H](O[C@H]2C(=O)c3c(O)cc(O)cc3O[C@@H]2c2ccc(O)c(O)c2)[C@H](O)[C@H](O)[C@H]1O [AST, astilbin]", "194.85 ± 6.53"],
  ["O=C(/C=C/c1ccc(O)c(O)c1)O[C@@H]1C[C@](O)(C(=O)O)C[C@@H](O)[C@H]1O [CH, chlorogenic acid]", "195.56 ± 7.88"]
]}

---

method_summary: Stability of the analytes in rat plasma QC samples under different storage conditions
Type: in vitro ADME
test_parameters: middle QC level, nominal ng/mL: AST 200, FE 125, PRO 100, CH 200, PE 200, SAB 400, n = 6
Description: QC samples were […], 50, 125, 400 ng/mL for FE, 20, 100, 400 ng/mL for PRO, 100, 200, 500 ng/mL for CH, 100, 200, 500 ng/mL for PE, 200, 400, 800 ng/mL for SAB respectively. All the stock solutions, working solutions and QC samples were stored at 4 ℃ until use. […] The stability of all QC samples was determined by the freshly calibration curve.

{"columns": ["compound_smiles", "Three freeze-thaw cycles measured value"],
 "data": [
  ["O=Cc1ccc(O)c(O)c1", 97.77],
  ["O=C(/C=C/c1ccc(O)c(O)c1)O[C@@H]1C[C@](O)(C(=O)O)C[C@@H](O)[C@H]1O", 191.77],
  ["COc1cc(/C=C/C(=O)O)ccc1O", 124.36],
  ["C[C@@H]1O[C@@H](O[C@H]2C(=O)c3c(O)cc(O)cc3O[C@@H]2c2ccc(O)c(O)c2)[C@H](O)[C@H](O)[C@H]1O", 193.37],
  ["C[C@@]12C[C@@]3(O)O[C@@H](O1)[C@]1(COC(=O)c4ccccc4)[C@H]3C[C@@]12O[C@@H]1O[C@H](CO)[C@@H](O)[C@H](O)[C@H]1O", 197.55]
]}

---

method_summary: Pharmacokinetics of six compounds in rat plasma after oral administration of PYQ (HPLC-MS/MS)
Type: in vivo, Sprague–Dawley rats
test_parameters: female, Sprague-Dawley, po, PYQ orally 8 mL/kg, non-compartmental, mean ± SD, n = 6, read-out: AUC(0-t)
Mark True only for AUC(0-t) values smaller than 1000 ng·h/mL; exact matches and larger values are False.

{"columns": ["compound", "assigned_class"],
 "data": [
  ["O=Cc1ccc(O)c(O)c1 [PRO, protocatechualdehyde]", "False"],
  ["O=C(/C=C/c1ccc(O)c(O)c1)O[C@@H]1C[C@](O)(C(=O)O)C[C@@H](O)[C@H]1O [CH, chlorogenic acid]", "True"],
  ["C[C@@H]1O[C@@H](O[C@H]2C(=O)c3c(O)cc(O)cc3O[C@@H]2c2ccc(O)c(O)c2)[C@H](O)[C@H](O)[C@H]1O [AST, astilbin]", "False"],
  ["COc1cc(/C=C/C(=O)O)ccc1O [FE, ferulic acid]", "False"],
  ["C[C@@]12C[C@@]3(O)O[C@@H](O1)[C@]1(COC(=O)c4ccccc4)[C@H]3C[C@@]12O[C@@H]1O[C@H](CO)[C@@H](O)[C@H](O)[C@H]1O [PE, paeoniflorin]", "False"]
]}
